Where a SMILES comes first, the peptide text is derived from it. Bridges are numbered along the chain shown (N, C = ends). [ ]: non-standard residue; d: D form. hPhe(3-Cl-4-CF3) = N[C@@H](CCc1ccc(C(F)(F)F)c(Cl)c1)C(=O)O; NPrPhe(4-CF3) = CCCN[C@@H](Cc1ccc(C(F)(F)F)cc1)C(=O)O; NMeGly(cPent) = CN[C@H](C(=O)O)C1CCCC1; Pro(4,4-F2) = O=C(O)[C@@H]1CC(F)(F)CN1; NMeL = CN[C@@H](CC(C)C)C(=O)O; Aze = O=C(O)[C@@H]1CCN1; Ac4c = NC1(C(=O)O)CCC1; Sar = CNCC(=O)O
Lab note: IC50 readings collected with human lung cancer strain NCI-H441 for the following molecules.

# MOLECULE, DISPLAY_UNIT, IC50
data = [
    ("CC[C@H](C)[C@@H]1NC(=O)[C@H](COC)N(C)C(=O)C[C@@H](C(=O)N(C)CC)N(C)C(=O)[C@H](C2CCCC2)N(C)C(=O)C2(CC(C)(C)C2)NC(=O)[C@@H]2C[C@H](C)CN2C(=O)[C@H](CCc2cc(F)c(C(F)(F)F)c(F)c2)NC(=O)CN(C)C(=O)[C@H](Cc2ccc(C)cc2)N2CC/C=C\\C[C@@H](C2=O)N(C)C(=O)CN(C)C1=O", "nM", 18.8),
    ("CCCN1C(=O)CN(C)C(=O)[C@@H]2CCN2C(=O)[C@H]([C@@H](C)CC)NC(=O)[C@H](CC(C)C)N(C)C(=O)C[C@@H](C(=O)N(C)C)NC(=O)[C@H](C2CCCC2)N(C)C(=O)C2(CCC2)NC(=O)[C@@H]2CC(F)(F)CN2C(=O)[C@H](CCc2ccc(C(F)(F)F)c(Cl)c2)NC(=O)CN(C)C(=O)[C@@H]1Cc1ccc(C(F)(F)F)cc1 [PP0376] ([NMeL]I[Aze][Sar][NPrPhe(4-CF3)][Sar][hPhe(3-Cl-4-CF3)][Pro(4,4-F2)][Ac4c][NMeGly(cPent)]D-NMe2; lactam N-11)", "nM", 114),
    ("CC[C@H](C)[C@@H]1NC(=O)[C@H](CC)N(C)C(=O)C[C@@H](C(=O)N2CCOCC2)N(C)C(=O)[C@H](C2CCCC2)N(C)C(=O)C2(CCCC2)NC(=O)[C@@H]2CCCN2C(=O)[C@H](CCc2cc(F)c(C(F)(F)F)c(F)c2)NC(=O)CN(C)C(=O)[C@H](Cc2ccc(C(F)(F)F)cc2)N2C[C@H](C)[C@H](C)C[C@@H](C2=O)N(C)C(=O)CN(C)C1=O", "nM", 4.2),
    ("CCO[C@@H]1C[C@H]2C(=O)NC3(CCC3)C(=O)N(C)[C@@H](C3CCCC3)C(=O)N(C)[C@H](C(=O)N(C)C)CC(=O)N(C)[C@@H](CC(C)(C)C)C(=O)N[C@@H]([C@@H](C)CC)C(=O)N(C)CC(=O)N(C)[C@H]3CCCCCN(C3=O)[C@@H](Cc3ccc(C(F)(F)F)cc3)C(=O)N(C)CC(=O)N[C@@H](CCc3cc(F)c(C(F)(F)F)c(F)c3)C(=O)N2C1", "nM", 20.3),
    ("CC[C@H](C)[C@@H]1NC(=O)[C@H](CC)N(C)C(=O)C[C@@H](C(=O)N(C)C)N(C)C(=O)[C@H](C2CCCC2)N(C)C(=O)C2(CCC2)NC(=O)[C@@H]2COCCN2C(=O)[C@H](CCc2cc(F)c(C(F)(F)F)c(F)c2)NC(=O)CN(C)C(=O)[C@H](Cc2ccc(C(F)(F)F)cc2)N2CC/C=C\\C[C@@H](C2=O)N(C)C(=O)CN(C)C1=O", "nM", 244),
    ("CC[C@H](C)[C@@H]1NC(=O)[C@H](COC)N(C)C(=O)C[C@@H](C(=O)N(C)C)N(C)C(=O)[C@H](C2CCCCC2)N(C)C(=O)C2(CC(C)(C)C2)NC(=O)[C@@H]2C[C@@H](OC3CCC3)CN2C(=O)[C@H](CCc2cc(F)c(C(F)(F)F)c(F)c2)NC(=O)CN(C)C(=O)[C@H](Cc2ccc(C(F)(F)F)cc2)N2CC/C=C\\C[C@@H](C2=O)N(C)C(=O)CN(C)C1=O", "nM", 17),
    ("CCO[C@@H]1C[C@H]2C(=O)NC3(CCC3)C(=O)N(C)[C@@H](C3CCCC3)C(=O)N(C)[C@H](C(=O)N(C)C)CC(=O)N(C)[C@@H](CC3CC3)C(=O)N[C@@H]([C@@H](C)CC)C(=O)N(C)CC(=O)N(C)[C@H]3CCCCCN(C3=O)[C@@H](Cc3ccc(F)cc3)C(=O)N(C)CC(=O)N[C@@H](CCc3cc(F)c(C(F)(F)F)c(F)c3)C(=O)N2C1", "nM", 10.5),
    ("CCO[C@@H]1C[C@H]2C(=O)NC3(CCC3)C(=O)N(C)[C@@H](C(CC)CC)C(=O)N(C)[C@H](C(=O)N(C)C)CC(=O)N(C)[C@@H](CC(C)C)C(=O)N[C@@H]([C@@H](C)CC)C(=O)N(C)CC(=O)N(C)[C@H]3C/C=C\\CCN(C3=O)[C@@H](CC3CCCCC3)C(=O)N(C)CC(=O)N[C@@H](CCc3cc(F)c(C(F)(F)F)c(F)c3)C(=O)N2C1", "nM", 51.3),
]
